The values you see were collected from PubChem BioAssay (NCI).

# GI50 annotations
# Tested on: KM12 colon
# PROTOCOL: NCI tumour cell line growth inhibition, 48 h

Please review the following examples before continuing.
Clc1ccc(CNc2ccc3nc(CCC4CCCCC4)[nH]c3c2)cc1 ... 2.49 µM
Cc1c2c(nn1-c1ccc(S/N=C3\SCC(=O)CN3Cc3ccccc3)cc1)-c1ccccc1CC2 ... 60.1 µM
O=c1[nH]cnc2c1ccn2C1OC(CO)C(O)C1O (stereo not given) ... 8.89 µM
CN1CCN(c2ccc3[nH]c(C4=C(O)c5nc(CCl)n(C)c5C(=O)C4=O)nc3n2)CC1 ... 15.9 µM

Enquiry: Which measured GI50 belongs to "COc1cc2c(/C=C3\C(=O)N(C)c4ccc(O)cc43)c[nH]c2cc1C" , tested on KM12 colon?
Return: 0.854 µM

Enquiry: Which measured GI50 belongs to COc1ccc(C2C(C#N)=C(N)Oc3c2sc2c(F)cccc32)cc1 (stereo not given) , tested on KM12 colon?
Return: 1.62 µM

Enquiry: Which measured GI50 belongs to "O=C(/C=C/c1ccc(Cl)cc1)c1ccc(Cl)c(Cl)c1" , tested on KM12 colon?
Return: 12.2 µM

Enquiry: Which measured GI50 belongs to "Cn1cc(-c2nonc2-c2cn(C)c3ccc(F)cc23)c2ccccc21" , tested on KM12 colon?
Return: 0.433 µM

Enquiry: Which measured GI50 belongs to "CC(=O)OCc1cnc2c3c(nc4ccccc4c13)C(=O)c1cccnc1-2" , tested on KM12 colon?
Return: 0.167 µM

Enquiry: Which measured GI50 belongs to C[C@H]1CCC/C=C/[C@@H]2C[C@H](O)C[C@H]2[C@H](O)[C@@H](S(=O)C[C@@H](N)C(=O)O)CC(=O)O1 (stereo not given in full) , tested on KM12 colon?
Return: < 0.014 µM
